The reported measurements were obtained from patent US8501794B2.

Below, each entry is listed alongside its reported pKi.
biological target: rat CB2 (Rattus norvegicus, UniProt Q9QZN9); assay: rat CB2 radioligand binding assay ([3H]CP-55,940 competition); design: expressed in transfected cells; host or cells: HEK293
// pKi is dimensionless: -log10 of concentration (M)

Bench note: what pKi did CCCCc1cn(C(C)(C)C)s/c1=N\C(=O)c1cc(Cl)ccc1OCC(F)(F)F show?
8.74

Please look up its pKi: CCCCc1cn(C(C)(C)C)s/c1=N\C(=O)[C@]1(C)CC[C@H](NC(=O)c2ccccc2)C1(C)C
7.22

# query: pKi of entry CCCCc1cn(C(C)(C)C)s/c1=N\C(=NC#N)c1cc(Cl)ccc1OC
8.80

Which pKi is reported for this compound? CCC1CC1c1cn(C(C)(C)C)s/c1=N\C(=O)c1cc(Cl)ccc1OC (centres unmarked)
7.64

Given COc1ccc(Cl)cc1C(=O)/N=c1\sn(C(C)(C)C)cc1OCCCCF , state its recorded pKi.
8.21

May I ask what pKi has been recorded for CCCCc1cn(C(C)(C)C)s/c1=N\C(=NC#N)c1cc(C(F)(F)F)ccc1OC[C@@H]1CCCN1C ?
7.01

Using the record for CCCCc1cn(C(C)(C)C)s/c1=N\C(=O)c1cc(C#N)ccc1OC , report its pKi.
9.00

Please look up its pKi: CCCCc1cn(C(C)(C)C)s/c1=N\S(=O)(=O)C1CCCCC1
6.92

Reported pKi for CCCCc1cn(C2CCC2)s/c1=N\C(=O)c1cc(Cl)ccc1OC : what is it?
7.96

Sample CCCCc1cn(C(C)(C)C)s/c1=N\C(=O)[C@]1(C)CC[C@H](C2=NCCO2)C1(C)C — what was its pKi?
9.14

Entry CCCCc1cn(C(C)(C)C)s/c1=N\C(=O)C12CC3CC(C1)CC(C(=O)OC)(C3)C2 : reported pKi = ?
10.15

Which value of pKi has been reported for CCCCc1cn(C(C)(C)C)s/c1=N\C(=O)[C@]1(C)CC[C@H](NC(C)=O)C1(C)C in the records?
7.55

// returns reported pKi for input COc1ccc(Cl)cc1C(=O)/N=c1\sn(C(C)(C)C)cc1COCCF
7.57

Fill in: pKi of COc1ccc(Cl)cc1C(=O)/N=c1\sn(C(C)(C)C)cc1C(O)c1ccccc1 (centres unmarked) is ___
8.24

Which pKi value is on record for CCCCc1cn(C(C)(C)C)s/c1=N\C(=O)[C@]1(C)CC[C@H](NC(=O)N2CCOCC2)C1(C)C ?
7.12

If you can, please state the reported pKi value of CCCCc1cn(C(C)(C)CF)s/c1=N\C(=O)c1cc(Cl)ccc1OC .
9.49

Param item = COc1ccc(Cl)cc1C(=O)/N=c1\sn(C(C)(C)C)cc1CCCC#N ; retrieve measured pKi.
8.59

* * *

Entries and their pKi
Target: rat CB2 (Rattus norvegicus, UniProt Q9QZN9)
Sequence (Q9QZN9 1-360): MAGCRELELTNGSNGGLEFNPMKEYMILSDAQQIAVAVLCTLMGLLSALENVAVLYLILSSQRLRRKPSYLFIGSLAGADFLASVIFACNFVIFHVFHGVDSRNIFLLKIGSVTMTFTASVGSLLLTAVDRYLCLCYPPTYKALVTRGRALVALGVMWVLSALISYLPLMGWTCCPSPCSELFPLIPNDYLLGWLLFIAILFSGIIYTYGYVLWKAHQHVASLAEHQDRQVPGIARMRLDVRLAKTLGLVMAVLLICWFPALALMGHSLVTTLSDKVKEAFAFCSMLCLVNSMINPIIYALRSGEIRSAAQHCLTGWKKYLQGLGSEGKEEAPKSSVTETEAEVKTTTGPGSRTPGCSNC
Test: rat CB2 radioligand binding assay ([3H]CP-55,940 competition)
Design: expressed in transfected cells; host or cells: HEK293
On this scale, pKi is minus log10 of a concentration expressed in M (mol/L).

Molecule: COc1ccc(Cl)cc1C(=O)/N=c1\sn(C(C)(C)C)cc1Cc1cccs1
pKi: 9.00
--
Molecule: COc1ccc(Cl)cc1C(=O)/N=c1\sn(C(C)(C)C)cc1CCN=[N+]=[N-]
pKi: 8.62
--
Molecule: CCCC1CCc2c(/c(=N/C(=O)c3cc(Cl)ccc3OC)sn2C(C)(C)C)C1 (stereo not shown)
pKi: 9.38

Field: next molecule
Quick check: pKi of CCCCc1cn(C(C)(C)C)s/c1=N\C(=O)C1(c2ccc(F)cc2Cl)CCCCC1 ?
8.64
